Provenance of the data: patent US11109593B2

Test system: Echinochloa crus-galli
Experiment: Test Example 2: herbicidal effect test by treatment during growing period in paddy rice cultivation (seven days after seeding)
Assay type: in vivo
Settings: 120 g/10a active ingredient, assessed 14 days after treatment, dry weight vs untreated area
Assign labels as follows, please: Criterion met for Herbicidal rate (%) Echinochloa crus-galli below 90%; Criterion not met for Herbicidal rate (%) Echinochloa crus-galli equal to or exceeding 90%.

Query block: Regarding Cc1c(Cc2cc(F)ccc2NS(=O)(=O)C(F)(F)F)c(=O)on1CC(C)C [Compound 1-28] , kindly confirm whether its Herbicidal rate (%) Echinochloa crus-galli is beneath 90%.
Result block: Criterion not met

Query block: Herbicidal rate (%) Echinochloa crus-galli strictly < 90% for this compound? Cc1c(Cc2ccccc2NS(=O)(=O)C(F)(F)F)c(=O)on1Cc1ccc(F)c(F)c1 [Compound 1-200]
Result block: Criterion met

Query block: API: query returns whether the compound falls strictly under 90% in Herbicidal rate (%) Echinochloa crus-galli. Query: Cc1c(Cc2ccccc2NS(=O)(=O)C(F)(F)F)c(=O)on1CCOC(C)C [Compound 1-155]
Result block: Criterion not met

Query block: Is Herbicidal rate (%) Echinochloa crus-galli of CCCC(CC)n1oc(=O)c(Cc2ccccc2N(S(=O)(=O)C(F)(F)F)S(=O)(=O)C(F)(F)F)c1C (stereo not drawn) [Compound 1-971] strictly below 90%?
Result block: Criterion not met

Query block: State whether 90% exceeds Herbicidal rate (%) Echinochloa crus-galli recorded for Cc1c(Cc2ccccc2NS(=O)(=O)C(F)(F)F)c(=O)on1Cc1ccc(Cl)cc1 [Compound 1-186] .
Result block: Criterion met

Query block: Confirm or reject: Herbicidal rate (%) Echinochloa crus-galli of Cc1c(Cc2ccccc2N(S(=O)(=O)C(F)(F)F)S(=O)(=O)C(F)(F)F)c(=O)on1CCC(C)(C)C [Compound 1-975] lies strictly below 90%
Result block: Criterion not met

Query block: Strictly below 90%: is that where Herbicidal rate (%) Echinochloa crus-galli of CCC(CC)Cn1oc(=O)c(Cc2ccccc2N(S(=O)(=O)C(F)(F)F)S(=O)(=O)C(F)(F)F)c1C [Compound 1-973] sits?
Result block: Criterion not met

Query block: Herbicidal rate (%) Echinochloa crus-galli strictly < 90% for this compound? Cc1c(Cc2ccccc2N(S(=O)(=O)C(F)(F)F)S(=O)(=O)C(F)(F)F)c(=O)on1Cc1ccc(Br)cc1 [Compound 1-1016]
Result block: Criterion met

Query block: Hi there! Is Herbicidal rate (%) Echinochloa crus-galli for Cc1c(Cc2c(Cl)cccc2NS(=O)(=O)C(F)(F)F)c(=O)on1C(C)C [Compound 1-46] below 90%, do you know?
Result block: Criterion met
